Species: Homo sapiens
Assay: Binding affinity to human telomeric DNA sequence assessed as stabilization of G-quadruplex at 10 uM by thermal denaturation
Measurement Name: ΔTm
Remember to put the unit after the number in your answer.

Exercise: For the compound shown here, N[C@@H](CO)C(=O)NCCNC(=O)c1ccc2c(c1)C(=O)c1ccc(C(=O)NCCNC(=O)[C@@H](N)CO)cc1C2=O , give the reported ΔTm.
Key: 2.5 °C

Exercise: For the compound shown here, NCCNC(=O)c1ccc2c(c1)C(=O)c1ccc(C(=O)NCCN)cc1C2=O , give the reported ΔTm.
Key: 9 °C

Exercise: For the compound shown here, C[C@H](N)C(=O)NCCC(=O)Nc1ccc2c(c1)C(=O)c1cc(NC(=O)CCNC(=O)[C@H](C)N)ccc1C2=O , give the reported ΔTm.
Key: 9 °C

Exercise: For the compound shown here, CC[C@H](C)[C@H](N)C(=O)NCCC(=O)Nc1ccc2c(c1)C(=O)c1ccc(NC(=O)CCNC(=O)[C@@H](N)[C@@H](C)CC)cc1C2=O , give the reported ΔTm.
Key: 5.7 °C

----------
Species on record: Homo sapiens
Test: Binding affinity to human telomeric DNA sequence assessed as stabilization of G-quadruplex at 10 uM by thermal denaturation
Please respond with reported ΔTm for every item in the list.
Remember to put the unit after the number in your answer.

Exercise: For the compound shown here, NCC(=O)NCC(=O)Nc1ccc2c(c1)C(=O)c1ccc(NC(=O)CNC(=O)CN)cc1C2=O , give the reported ΔTm.
Key: 8.6 °C

Exercise: For the compound shown here, CC(C)[C@H](N)C(=O)NCCC(=O)Nc1ccc2c(c1)C(=O)c1ccc(NC(=O)CCNC(=O)[C@@H](N)C(C)C)cc1C2=O , give the reported ΔTm.
Key: 6 °C

Exercise: For the compound shown here, N[C@@H](CO)C(=O)NCCNC(=O)c1ccc2c(c1)C(=O)c1cc(C(=O)NCCNC(=O)[C@@H](N)CO)ccc1C2=O , give the reported ΔTm.
Key: 2.1 °C

Exercise: For the compound shown here, NCC(=O)Nc1ccc2c(c1)C(=O)c1ccc(NC(=O)CN)cc1C2=O , give the reported ΔTm.
Key: 3.6 °C

----------
Organism: Homo sapiens
Experiment: Binding affinity to human telomeric DNA sequence assessed as stabilization of G-quadruplex at 1 uM by thermal denaturation
Response key: label 1 means ΔTm >= 0.3 °C; label 0 means ΔTm < 0.3 °C.

Exercise: Can NCCNC(=O)c1ccc2c(c1)C(=O)c1cc(C(=O)NCCN)ccc1C2=O be said to have ΔTm at or above 0.3 °C?
Key: label 1

Exercise: Can CC[C@H](C)[C@H](N)C(=O)NCCNC(=O)c1ccc2c(c1)C(=O)c1ccc(C(=O)NCCNC(=O)[C@@H](N)[C@@H](C)CC)cc1C2=O be said to have ΔTm at or above 0.3 °C?
Key: label 0

Exercise: Can NCC(=O)NCC(=O)Nc1ccc2c(c1)C(=O)c1ccc(NC(=O)CNC(=O)CN)cc1C2=O be said to have ΔTm at or above 0.3 °C?
Key: label 1

Exercise: Can CC[C@H](C)[C@H](N)C(=O)NCCC(=O)Nc1ccc2c(c1)C(=O)c1ccc(NC(=O)CCNC(=O)[C@@H](N)[C@@H](C)CC)cc1C2=O be said to have ΔTm at or above 0.3 °C?
Key: label 0

Exercise: Can C[C@H](N)C(=O)NCCC(=O)Nc1ccc2c(c1)C(=O)c1ccc(NC(=O)CCNC(=O)[C@H](C)N)cc1C2=O be said to have ΔTm at or above 0.3 °C?
Key: label 0

Exercise: Can CC(C)C[C@H](N)C(=O)NCC(=O)Nc1ccc2c(c1)C(=O)c1ccc(NC(=O)CNC(=O)[C@@H](N)CC(C)C)cc1C2=O be said to have ΔTm at or above 0.3 °C?
Key: label 1

Exercise: Can C[C@H](N)C(=O)NCC(=O)Nc1ccc2c(c1)C(=O)c1ccc(NC(=O)CNC(=O)[C@H](C)N)cc1C2=O be said to have ΔTm at or above 0.3 °C?
Key: label 1

Exercise: Can CC(C)[C@H](N)C(=O)NCCC(=O)Nc1ccc2c(c1)C(=O)c1ccc(NC(=O)CCNC(=O)[C@@H](N)C(C)C)cc1C2=O be said to have ΔTm at or above 0.3 °C?
Key: label 0

Exercise: Can NCCNC(=O)c1ccc2c(c1)C(=O)c1ccc(C(=O)NCCN)cc1C2=O be said to have ΔTm at or above 0.3 °C?
Key: label 1

Exercise: Can CC[C@H](C)[C@H](N)C(=O)NCCNC(=O)c1ccc2c(c1)C(=O)c1cc(C(=O)NCCNC(=O)[C@@H](N)[C@@H](C)CC)ccc1C2=O be said to have ΔTm at or above 0.3 °C?
Key: label 1

----------
Molecular target: UniProt:P19821
Sequence (P19821 whole entry): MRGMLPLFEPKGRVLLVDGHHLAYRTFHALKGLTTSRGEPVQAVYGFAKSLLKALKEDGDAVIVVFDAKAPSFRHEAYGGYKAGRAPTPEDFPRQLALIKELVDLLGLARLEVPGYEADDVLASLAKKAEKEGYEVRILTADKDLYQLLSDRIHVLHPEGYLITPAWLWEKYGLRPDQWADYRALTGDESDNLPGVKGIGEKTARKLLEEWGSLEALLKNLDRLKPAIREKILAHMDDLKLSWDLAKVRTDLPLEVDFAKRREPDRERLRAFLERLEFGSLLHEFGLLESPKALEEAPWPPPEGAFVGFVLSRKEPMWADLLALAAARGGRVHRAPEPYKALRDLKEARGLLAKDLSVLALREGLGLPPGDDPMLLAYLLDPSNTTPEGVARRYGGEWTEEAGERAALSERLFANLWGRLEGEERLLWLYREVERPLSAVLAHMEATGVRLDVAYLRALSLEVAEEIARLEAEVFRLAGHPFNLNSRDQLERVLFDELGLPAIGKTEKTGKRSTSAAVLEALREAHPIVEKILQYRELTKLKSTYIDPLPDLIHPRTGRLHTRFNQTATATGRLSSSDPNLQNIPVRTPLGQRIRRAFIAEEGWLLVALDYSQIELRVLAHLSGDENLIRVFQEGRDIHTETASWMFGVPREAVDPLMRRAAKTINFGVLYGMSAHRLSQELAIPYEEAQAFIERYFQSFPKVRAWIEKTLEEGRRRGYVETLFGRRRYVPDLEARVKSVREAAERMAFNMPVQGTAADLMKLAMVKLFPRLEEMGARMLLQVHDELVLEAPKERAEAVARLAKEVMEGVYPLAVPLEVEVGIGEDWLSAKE
Assay: Inhibition of Taq polymerase
pEC50: −log10 of the molar value.
Measurement Name: pEC50

Exercise: For the compound shown here, CC(C)[C@H](N)C(=O)NCC(=O)Nc1ccc2c(c1)C(=O)c1ccc(NC(=O)CNC(=O)[C@@H](N)C(C)C)cc1C2=O , give the reported pEC50.
Key: < 4.40

Exercise: For the compound shown here, NCCNC(=O)c1ccc2c(c1)C(=O)c1cc(C(=O)NCCN)ccc1C2=O , give the reported pEC50.
Key: < 4.40

Exercise: For the compound shown here, N[C@@H](Cc1ccccc1)C(=O)NCCC(=O)Nc1ccc2c(c1)C(=O)c1ccc(NC(=O)CCNC(=O)[C@@H](N)Cc3ccccc3)cc1C2=O , give the reported pEC50.
Key: < 4.40

Exercise: For the compound shown here, NCCC(=O)Nc1ccc2c(c1)C(=O)c1cc(NC(=O)CCN)ccc1C2=O , give the reported pEC50.
Key: 5.00

Exercise: For the compound shown here, NCCNC(=O)c1ccc2c(c1)C(=O)c1ccc(C(=O)NCCN)cc1C2=O , give the reported pEC50.
Key: 4.70

Exercise: For the compound shown here, C[C@H](N)C(=O)NCCC(=O)Nc1ccc2c(c1)C(=O)c1ccc(NC(=O)CCNC(=O)[C@H](C)N)cc1C2=O , give the reported pEC50.
Key: < 4.40

Exercise: For the compound shown here, CC[C@H](C)[C@H](N)C(=O)NCCNC(=O)c1ccc2c(c1)C(=O)c1ccc(C(=O)NCCNC(=O)[C@@H](N)[C@@H](C)CC)cc1C2=O , give the reported pEC50.
Key: < 4.40

Exercise: For the compound shown here, CC(C)C[C@H](N)C(=O)NCCNC(=O)c1ccc2c(c1)C(=O)c1ccc(C(=O)NCCNC(=O)[C@@H](N)CC(C)C)cc1C2=O , give the reported pEC50.
Key: < 4.40

Exercise: For the compound shown here, N[C@@H](CO)C(=O)NCCNC(=O)c1ccc2c(c1)C(=O)c1cc(C(=O)NCCNC(=O)[C@@H](N)CO)ccc1C2=O , give the reported pEC50.
Key: < 4.40

Exercise: For the compound shown here, NCCCC[C@H](N)C(=O)NCCC(=O)Nc1ccc2c(c1)C(=O)c1cc(NC(=O)CCNC(=O)[C@@H](N)CCCCN)ccc1C2=O , give the reported pEC50.
Key: 5.60

Exercise: For the compound shown here, CC[C@H](C)[C@H](N)C(=O)NCCC(=O)Nc1ccc2c(c1)C(=O)c1ccc(NC(=O)CCNC(=O)[C@@H](N)[C@@H](C)CC)cc1C2=O , give the reported pEC50.
Key: < 4.40

Exercise: For the compound shown here, C[C@H](N)C(=O)NCCNC(=O)c1ccc2c(c1)C(=O)c1ccc(C(=O)NCCNC(=O)[C@H](C)N)cc1C2=O , give the reported pEC50.
Key: < 4.40

Exercise: For the compound shown here, NCCCC[C@H](N)C(=O)NCCC(=O)Nc1ccc2c(c1)C(=O)c1ccc(NC(=O)CCNC(=O)[C@@H](N)CCCCN)cc1C2=O , give the reported pEC50.
Key: 5.00

Exercise: For the compound shown here, NC(N)=NCCC[C@H](N)C(=O)NCCNC(=O)c1ccc2c(c1)C(=O)c1cc(C(=O)NCCNC(=O)[C@@H](N)CCCN=C(N)N)ccc1C2=O , give the reported pEC50.
Key: 5.00

Exercise: For the compound shown here, CC(C)C[C@H](N)C(=O)NCC(=O)Nc1ccc2c(c1)C(=O)c1ccc(NC(=O)CNC(=O)[C@@H](N)CC(C)C)cc1C2=O , give the reported pEC50.
Key: < 4.40

Exercise: For the compound shown here, NCCCC[C@H](N)C(=O)NCCNC(=O)c1ccc2c(c1)C(=O)c1ccc(C(=O)NCCNC(=O)[C@@H](N)CCCCN)cc1C2=O , give the reported pEC50.
Key: 5.00

Exercise: For the compound shown here, CC[C@H](C)[C@H](N)C(=O)NCCNC(=O)c1ccc2c(c1)C(=O)c1cc(C(=O)NCCNC(=O)[C@@H](N)[C@@H](C)CC)ccc1C2=O , give the reported pEC50.
Key: < 4.40

Exercise: For the compound shown here, NC(N)=NCCC[C@H](N)C(=O)NCC(=O)Nc1ccc2c(c1)C(=O)c1ccc(NC(=O)CNC(=O)[C@@H](N)CCCN=C(N)N)cc1C2=O , give the reported pEC50.
Key: 5.00

Exercise: For the compound shown here, N[C@@H](Cc1ccccc1)C(=O)NCCNC(=O)c1ccc2c(c1)C(=O)c1cc(C(=O)NCCNC(=O)[C@@H](N)Cc3ccccc3)ccc1C2=O , give the reported pEC50.
Key: < 4.40

Exercise: For the compound shown here, NCCC(=O)Nc1ccc2c(c1)C(=O)c1ccc(NC(=O)CCN)cc1C2=O , give the reported pEC50.
Key: < 4.40

Exercise: For the compound shown here, CC(C)[C@H](N)C(=O)NCCC(=O)Nc1ccc2c(c1)C(=O)c1ccc(NC(=O)CCNC(=O)[C@@H](N)C(C)C)cc1C2=O , give the reported pEC50.
Key: < 4.40

Exercise: For the compound shown here, NCC(=O)NCCNC(=O)c1ccc2c(c1)C(=O)c1ccc(C(=O)NCCNC(=O)CN)cc1C2=O , give the reported pEC50.
Key: < 4.40

Exercise: For the compound shown here, C[C@H](N)C(=O)NCCC(=O)Nc1ccc2c(c1)C(=O)c1cc(NC(=O)CCNC(=O)[C@H](C)N)ccc1C2=O , give the reported pEC50.
Key: < 4.40

Exercise: For the compound shown here, NC(N)=NCCC[C@H](N)C(=O)NCCC(=O)Nc1ccc2c(c1)C(=O)c1cc(NC(=O)CCNC(=O)[C@@H](N)CCCN=C(N)N)ccc1C2=O , give the reported pEC50.
Key: 5.40

Exercise: For the compound shown here, C[C@H](N)C(=O)NCCNC(=O)c1ccc2c(c1)C(=O)c1cc(C(=O)NCCNC(=O)[C@H](C)N)ccc1C2=O , give the reported pEC50.
Key: < 4.40

Exercise: For the compound shown here, CC[C@H](C)[C@H](N)C(=O)NCCC(=O)Nc1ccc2c(c1)C(=O)c1cc(NC(=O)CCNC(=O)[C@@H](N)[C@@H](C)CC)ccc1C2=O , give the reported pEC50.
Key: < 4.40

Exercise: For the compound shown here, CC(C)C[C@H](N)C(=O)NCCNC(=O)c1ccc2c(c1)C(=O)c1cc(C(=O)NCCNC(=O)[C@@H](N)CC(C)C)ccc1C2=O , give the reported pEC50.
Key: < 4.40

Exercise: For the compound shown here, NCC(=O)Nc1ccc2c(c1)C(=O)c1ccc(NC(=O)CN)cc1C2=O , give the reported pEC50.
Key: < 4.40

Exercise: For the compound shown here, C[C@@H](O)[C@H](N)C(=O)NCCNC(=O)c1ccc2c(c1)C(=O)c1cc(C(=O)NCCNC(=O)[C@@H](N)[C@@H](C)O)ccc1C2=O , give the reported pEC50.
Key: < 4.40
